biological target: HLA-A*68:01; assay: IEDB peptide-MHC binding, purified MHC/competitive/radioactivity; filed as Kd, often an IC50 or EC50 that approximates it; bounds were set here for any values at or beyond the usual limits of such assays; details: source organism: Vaccinia virus WR
pKd: −log10 of the molar value.
Binary call on pKd: rule met from 7 upward, rule not met beneath that.

Worked examples follow.
>  <ENTRY SEQUENCE>
SLTIKDSSNK

>  <CLASS ASSIGNMENT>
rule not met

$$$$
>  <ENTRY SEQUENCE>
IVHSYLKNY

>  <CLASS ASSIGNMENT>
rule not met

$$$$
>  <ENTRY SEQUENCE>
ILMKTANNY

>  <CLASS ASSIGNMENT>
rule not met

$$$$
>  <ENTRY SEQUENCE>
EFLHYCNSY

>  <CLASS ASSIGNMENT>
rule not met

$$$$
>  <ENTRY SEQUENCE>
PVYISQFSY

>  <CLASS ASSIGNMENT>
rule not met

$$$$
>  <ENTRY SEQUENCE>
MLEGETKLYK

>  <CLASS ASSIGNMENT>
rule not met

$$$$

pKd >= 7 for FTDISMSLY ?
rule not met

Is the recorded value of pKd equal to or greater than 7 for this sequence? DTIESAKTK
rule met

hey, is pKd for this one >= 7? ALINLVQYR
rule not met

---

What pKd was measured for each of the following?
target: HLA-A*26:01; assay: IEDB peptide-MHC binding, purified MHC/competitive/radioactivity; filed as Kd, often an IC50 or EC50 that approximates it; bounds were set here for any values at or beyond the usual limits of such assays; details: source organism: SARS coronavirus Tor2
One number for each entry, as −log10 of the molar value.

Some sequences with known pKd results, for comparison:
>  <ENTRY SEQUENCE>
CFANKHAGF

>  <pKd>
4.93

$$$$
>  <ENTRY SEQUENCE>
YIAVNDKALY

>  <pKd>
5.59

$$$$
>  <ENTRY SEQUENCE>
VFYLYLTFYF

>  <pKd>
6.21

$$$$
>  <ENTRY SEQUENCE>
SWFITQRNFF

>  <pKd>
4.90

$$$$
>  <ENTRY SEQUENCE>
ATSRTLSYY

>  <pKd>
5.71

$$$$
>  <ENTRY SEQUENCE>
HFAIGLALY

>  <pKd>
6.62

$$$$

Quick request: pKd for each listed item, please.
1. PYRVVVLSF
2. YFTNDVSFL
3. LYDANYFVCW

1: 5.98; 2: 4.79; 3: 5.02

---

Task for the reader: assign each of the following sequences its reported pKd.
molecular target: HLA-A*02:03; assay: IEDB peptide-MHC binding, purified MHC/competitive/radioactivity; filed as Kd, often an IC50 or EC50 that approximates it; bounds were set here for any values at or beyond the usual limits of such assays; conditions: source organism: Vaccinia virus WR
Give bare numbers, as −log10 of the molar value.

Examples with their reported pKd follow.
>  <ENTRY SEQUENCE>
NTFVNFNSV

>  <EXPERIMENTAL TARGET>
HLA-A*02:03

>  <pKd>
7.00

$$$$
>  <ENTRY SEQUENCE>
IVFGIYKDNL

>  <EXPERIMENTAL TARGET>
HLA-A*02:03

>  <pKd>
6.10

$$$$
>  <ENTRY SEQUENCE>
DTMRIYCSL

>  <EXPERIMENTAL TARGET>
HLA-A*02:03

>  <pKd>
5.26

$$$$
>  <ENTRY SEQUENCE>
IVPDIKLDA

>  <EXPERIMENTAL TARGET>
HLA-A*02:03

>  <pKd>
4.80

$$$$
>  <ENTRY SEQUENCE>
SLDQTHIKTI

>  <EXPERIMENTAL TARGET>
HLA-A*02:03

>  <pKd>
7.84

$$$$
>  <ENTRY SEQUENCE>
TIVSRSSRGV

>  <EXPERIMENTAL TARGET>
HLA-A*02:03

>  <pKd>
7.95

$$$$
>  <ENTRY SEQUENCE>
TVDFTDCRTI

>  <EXPERIMENTAL TARGET>
HLA-A*02:03

>  <pKd>
4.98

$$$$
>  <ENTRY SEQUENCE>
NASKTINALV

>  <EXPERIMENTAL TARGET>
HLA-A*02:03

>  <pKd>
6.56

$$$$

Provide pKd values for the following items, in order.
1. MLPESDLDKV
2. NIPELKHGLL
3. FVATFRDML
4. KVTGSYNLV
5. KILSDENYLL
6. NAILHNIYRL

1: 5.75; 2: 5.57; 3: 6.69; 4: 7.37; 5: 5.42; 6: 4.99

---

Hi there, I'd appreciate the recorded Kd for every entry that follows.
target: HLA-A*31:01; assay: IEDB peptide-MHC binding, purified MHC/competitive/radioactivity; filed as Kd, often an IC50 or EC50 that approximates it; bounds were set here for any values at or beyond the usual limits of such assays; conditions: source organism: SARS coronavirus Tor2
Numbers only, in nM.

Consider the worked cases shown below.
>  <ENTRY SEQUENCE>
LLMPILTLTR

>  <Kd, nM>
5.53

$$$$
>  <ENTRY SEQUENCE>
ATSRTLSYY

>  <Kd, nM>
3880

$$$$
>  <ENTRY SEQUENCE>
VTTIMFLAR

>  <Kd, nM>
45.4

$$$$

Quick request: Kd for each listed item, please.
1. VTLAILTALR
2. LFQLCTFTK

1: 13.4; 2: 574

---

target: HLA-A*33:01; assay: IEDB peptide-MHC binding, purified MHC/competitive/radioactivity; filed as Kd, often an IC50 or EC50 that approximates it; bounds were set here for any values at or beyond the usual limits of such assays; settings: source organism: Vaccinia virus WR
READOUT TYPE: Kd (µM)
Give bare numbers, in µM.

Use the examples below as a reference point.
>  <ENTRY SEQUENCE>
FMSHVKSVTK

>  <UNIT SYMBOL>
µM

>  <RECORDED RESULT>
0.0989

$$$$
>  <ENTRY SEQUENCE>
ISSKQYPAGR

>  <UNIT SYMBOL>
µM

>  <RECORDED RESULT>
0.317

$$$$
>  <ENTRY SEQUENCE>
LSYIYSEIK

>  <UNIT SYMBOL>
µM

>  <RECORDED RESULT>
1.59

$$$$
>  <ENTRY SEQUENCE>
SVLCVKKFY

>  <UNIT SYMBOL>
µM

>  <RECORDED RESULT>
12.9

$$$$
>  <ENTRY SEQUENCE>
ALINLVQYR

>  <UNIT SYMBOL>
µM

>  <RECORDED RESULT>
17.4

$$$$

Give Kd for all sequences that follow.
1. ATIQRFSSLR
2. VINAPIKEFK
3. TSSFREKSR
4. PVYISQFSY
5. PSIFLIITK

1. 0.244
2. 0.0838
3. 0.844
4. 16.2
5. 10.9

For every item in the list below, what is its measured Kd?
1. IAEFVKENER
2. ILGGVLHTK
3. NARGEDTQMR
4. VSLSAYIIR
5. QTSVNTVVR

5.58
6.16
2.12
4
7.26

For every item in the list below, what is its measured Kd?
1. EFLHYCNSY
2. FLIVSLCPTK
3. TLISLNSMY
4. HTCMSECVR
5. ISRTRLYDY

[6.03, 15.1, 15, 0.324, 2.19]

---

biological target: HLA-A*31:01; assay: IEDB peptide-MHC binding, purified MHC/competitive/radioactivity; filed as Kd, often an IC50 or EC50 that approximates it; bounds were set here for any values at or beyond the usual limits of such assays; conditions: source organism: Vaccinia virus WR
Kindly state pKd for each of the entries shown.
One number for each entry, as −log10 of the molar value.

>  <ENTRY SEQUENCE>
ISRTRLYDY

>  <pKd>
5.91

$$$$
>  <ENTRY SEQUENCE>
ALINLVQYR

>  <pKd>
6.86

$$$$
>  <ENTRY SEQUENCE>
DILGVLTIK

>  <pKd>
4.90

$$$$

Hi team, please reply with pKd for each item in this list.
1. ASMGFKVTTR
2. LSDENYLLK

1. 9.38
2. 5.82

Hey, quick one: what's pKd for each of these?
1. ISSKQYPAGR
2. ILSDIISAEK
3. AAIDRQVSVK
4. MLTNAISSR
5. ATIQRFSSLR

[8.25, 7.84, 4.78, 8.02, 9.20]
